System: Hedgehog Signaling Pathway
protocol: SHH-induced differentiation of C3H10T1/2 cells into osteoblastic cells, intracellular alkaline phosphatase activity
Type: cell-based, mouse
assay context: Mus musculus, C3H 10T1/2, 120 h, 10 nM SHH-N, 5 days, alkaline phosphatase activity (OD405), read-out: IC50 values of compounds that inhibit Hh pathway
pIC50: −log10 of the molar value.
test readout: pIC50

Example entries begin here.
Cc1ccc2nc(-c3cc(NC(=O)c4ccc(N5C[C@@H](C)N(C)[C@@H](C)C5)cc4C)ccc3Cl)[nH]c2c1 [Example 112]	8.07
C[C@@H]1CN(c2ccc(C(=O)Nc3ccc(Cl)c(-c4ncc(-c5ccc(Cl)s5)[nH]4)c3)c(Cl)c2)C[C@H](C)N1C [Example 138]	8.80
CCCc1cnc(-c2cc(NC(=O)c3ccc(N4C[C@@H](C)N(C)[C@@H](C)C4)cc3C)ccc2Cl)[nH]1 [Example 172]	7.35
Cc1cc(-c2ccc(C(F)(F)F)cc2)ccc1C(=O)Nc1ccc(Cl)c(-c2nc3ccccc3n2C)c1 [Example 47]	8.48

A: C[C@@H]1CN(c2cc(Cl)c(C(=O)Nc3ccc(Cl)c(-c4ncc(-c5cccs5)[nH]4)c3)cc2F)C[C@H](C)N1C [Example 157]
B: Cc1nc(N2C[C@@H](C)O[C@@H](C)C2)ccc1C(=O)Nc1cnc(Cl)c(-c2nc3ccccc3[nH]2)c1 [Example 84]
Pick one, A or B : lowest reported pIC50. # answer = label of selected item B

###

Test system: Hedgehog Signaling Pathway
protocol: Gli-Luc reporter gene cell assay in C3H10T1/2/Gli-Luc cells stimulated with Shh
Assay type: cell-based, mouse
assay context: Mus musculus, C3H 10T1/2, 24 h, 30 nM Shh, luciferase activity (RLU), read-out: IC50 values of compounds that inhibit Hh pathway
pIC50: −log10 of the molar value. Where a name gives a salt, the structure may show the parent alone.
test readout: pIC50

Below, each entry is followed by its recorded pIC50 result.
C[C@@H]1CN(c2ccc(C(=O)Nc3ccc(Cl)c(-c4ncc(-c5ccco5)[nH]4)c3)c(C(F)(F)F)c2)C[C@H](C)N1C	9.41
Cc1cc(N2C[C@@H](C)N[C@@H](C)C2)ccc1C(=O)Nc1ccc(Cl)c(-c2nc3ccccc3[nH]2)c1	8.42
CN1CCN(c2ccc(C(=O)Nc3ccc(Cl)c(-c4nc5ccccc5[nH]4)c3)cn2)CC1	8.03
Cc1cc(-c2ccc(C(F)(F)F)cc2)ccc1C(=O)Nc1ccc(Cl)c(-c2ncc(-c3cccs3)[nH]2)c1	8.00
Cc1cc(N2C[C@@H](C)N(C)[C@@H](C)C2)ccc1C(=O)Nc1ccc(Cl)c(-c2ncc(-c3ccsc3)[nH]2)c1	8.96

P: C[C@@H]1CN(c2ccc(C(=O)Nc3ccc(Cl)c(-c4ncc(-c5ccc(Cl)s5)[nH]4)c3)cc2Cl)C[C@H](C)N1C
Q: CCN1[C@H](C)CN(c2ccc(C(=O)Nc3ccc(Cl)c(-c4ncc(-c5ccsc5)[nH]4)c3)c(Cl)c2)C[C@@H]1C [Example 165, Dihydrochloride]
R: C[C@@H]1CN(c2ccc(C(=O)Nc3ccc(Cl)c(-c4cn5ccsc5n4)c3)c(Cl)c2)C[C@H](C)N1C
S: CS(=O)(=O)c1ccc(C(=O)Nc2ccc(Cl)c(-c3ncc(-c4cccs4)[nH]3)c2)c(Cl)c1
Please produce an ascending ranking of these compounds based on pIC50. Respond with the label ranking, as requested. R, S, P, Q
(R: 7.54, S: 8.19, P: 8.64, Q: 9.72)

###

System: Hedgehog Signaling Pathway
protocol: Gli-Luc reporter gene cell assay in C3H10T1/2/Gli-Luc cells stimulated with Shh
Assay type: cell-based, mouse
assay context: Mus musculus, C3H 10T1/2, 24 h, 30 nM Shh, luciferase activity (RLU), read-out: IC50 values of compounds that inhibit Hh pathway
Procedure: The Application of Reporter Gene Cell Assay for the Determination of the Inhibitory Activity of N-(3-(1H-benzo[d]imidazol-2-yl)-4-chlorophenyl)-2-methyl-4-((2S,6R)-2,6-dimethylmorpholino) benzamide and Analogs on Hedgehog Signaling Pathway […] The data were analyzed with Prism 5 software (GraphPad). […] The calculated IC50 value is a measurement of the inhibitory activity of compound to Hh pathway.
test readout: IC50 (nM)

Consider the reported IC50 for these compounds:
Cc1c(C(=O)Nc2ccc(Cl)c(-c3ncc(-c4ccco4)[nH]3)c2)ccc(N2C[C@@H](C)N(C)[C@@H](C)C2)c1F	0.26
Cc1c(C(=O)Nc2ccc(Cl)c(-c3ncc(-c4cccs4)[nH]3)c2)ccc(N2C[C@@H](C)N(C)[C@@H](C)C2)c1F	0.21

1: Cc1cc(N2C[C@@H](C)N(C)[C@@H](C)C2)ccc1C(=O)Nc1ccc(Cl)c(-c2nc3ccc(Cl)cc3[nH]2)c1
2: C[C@@H]1CN(c2ccc(C(=O)Nc3ccc(Cl)c(-c4nc5ccc(Cl)cc5[nH]4)c3)c(Cl)c2)C[C@H](C)N1C
3: Cc1cc(-c2cncnc2)ccc1C(=O)Nc1ccc(Cl)c(-c2nc3ccccc3[nH]2)c1
4: Cc1nc(N2C[C@@H](C)O[C@@H](C)C2)ccc1C(=O)Nc1ccc(Cl)c(-c2nc3ccccc3[nH]2)c1
Put the entries in order of IC50, starting with the largest number. In your reply, arrange the labels in the requested order. 3, 4, 2, 1
(3: 12 nM, 4: 8.4 nM, 2: 3.3 nM, 1: 1.7 nM)

###

Tested on: Hedgehog Signaling Pathway
protocol: Gli-Luc reporter gene cell assay in C3H10T1/2/Gli-Luc cells stimulated with Shh
Type: cell-based, mouse
assay context: Mus musculus, C3H 10T1/2, 24 h, 30 nM Shh, luciferase activity (RLU), read-out: IC50 values of compounds that inhibit Hh pathway
pIC50: −log10 of the molar value.
test readout: pIC50

Recorded results for 5 molecules are shown here.
Cc1cc(N2C[C@@H](C)N(C)[C@@H](C)C2)ccc1C(=O)Nc1ccc(Cl)c(-c2ncc[nH]2)c1 [Example 166]	7.96
Cc1cc(-c2ccc(C#N)cc2)ccc1C(=O)Nc1cnc(Cl)c(-c2nc3ccccc3[nH]2)c1 [Example 70]	8.77
Cc1cc(N2C[C@@H](C)N(C)[C@@H](C)C2)ccc1C(=O)Nc1ccc(Cl)c(-c2ncc(C3CCCCC3)[nH]2)c1 [Example 185]	7.77
Cc1cc(-c2ccc(C#N)cc2)ccc1C(=O)Nc1ccc(Cl)c(-c2nc3ccccc3[nH]2)c1 [Example 6]	8.48
Cc1cc(C(=O)Nc2ccc(Cl)c(-c3nc4ccccc4[nH]3)c2)ccc1-c1ccc(C(F)(F)F)cc1 [Example 14]	8.02

P: Cc1cc(-c2ccc(C(F)(F)F)cc2)ccc1C(=O)Nc1cncc(-c2nc3ccccc3[nH]2)c1 [Example 60]
Q: C[C@@H]1CN(c2ccc(C(=O)Nc3ccc(Cl)c(-c4ncc(-c5ccc(Cl)s5)[nH]4)c3)c(Cl)c2)C[C@H](C)N1C [Example 138]
pIC50 comparison. Which is larger, P or Q ? Could you answer with the label of the item you picked? Q
(Q: 9.24, P: 7.64)

###

System: Hedgehog Signaling Pathway
protocol: Gli-Luc reporter gene cell assay in C3H10T1/2/Gli-Luc cells stimulated with Shh
Assay type: cell-based, mouse
assay context: Mus musculus, C3H 10T1/2, 24 h, 30 nM Shh, luciferase activity (RLU), read-out: IC50 values of compounds that inhibit Hh pathway
Where a name gives a salt, the structure may show the parent alone.
test readout: IC50 (nM)

P: O=C(Nc1ccc(Cl)c(-c2nc3ccccc3[nH]2)c1)c1ccc(-c2ccc(C(F)(F)F)cc2)cc1
Q: CCc1cnc(-c2cc(NC(=O)c3ccc(N4C[C@@H](C)N(C)[C@@H](C)C4)cc3Cl)ccc2Cl)[nH]1 [Example 188, Dihydrochloride]
R: Cc1cc(-c2ccc(C(F)(F)F)cc2)ccc1C(=O)Nc1ccc(Cl)c(-c2ncc(-c3ccccc3)[nH]2)c1
S: CCc1cnc(-c2cc(NC(=O)c3ccc(N4C[C@@H](C)N(C)[C@@H](C)C4)c(F)c3C)ccc2Cl)[nH]1
List by increasing IC50. Please list the labels in the order you were asked to rank them. S, Q, R, P

###

Tested on: Hedgehog Signaling Pathway
protocol: Gli-Luc reporter gene cell assay in C3H10T1/2/Gli-Luc cells stimulated with Shh
Format: cell-based, mouse
assay context: Mus musculus, C3H 10T1/2, 24 h, 30 nM Shh, luciferase activity (RLU), read-out: IC50 values of compounds that inhibit Hh pathway
Counter-ions that a name gives are not always drawn.
test readout: IC50 (nM)

Cc1ccc(-c2cnc(-c3cc(NC(=O)c4ccc(-c5ccc(C(F)(F)F)cc5)cc4C)ccc3Cl)[nH]2)cc1	7.1
Cc1cc(N2C[C@@H](C)N(C)[C@@H](C)C2)ccc1C(=O)Nc1ccc(Cl)c(-c2nc3ccncc3[nH]2)c1	9.5
C[C@@H]1CN(c2ccc(C(=O)Nc3ccc(Cl)c(-c4ncc(C5CCC5)[nH]4)c3)c(Cl)c2)C[C@H](C)N1C	2.4
CC(C)c1cnc(-c2cc(NC(=O)c3cc(F)c(N4C[C@@H](C)N(C)[C@@H](C)C4)cc3Cl)ccc2Cl)[nH]1 [Example 191, Dihydrochloride]	0.34

P: C[C@@H]1CN(c2ccc(C(=O)Nc3ccc(Cl)c(-c4ncc(-c5cccs5)[nH]4)c3)c(Cl)c2)C[C@H](C)N1C
Q: C[C@@H]1CN(c2ccc(C(=O)Nc3ccc(Cl)c(-c4ncc(C(C)(C)C)[nH]4)c3)c(Cl)c2)C[C@H](C)N1C
Of P and Q , which shows the smaller IC50 value? // respond with label for picked entry P
